Recorded inhibition at 1 µM for the following compounds
test system: Marburg virus (MARV); experiment: organism not typed; assay type: cell-based; details: Vero, 72 h, read-out: Percent viral inhibition MARV
All answers are understood in %, so give the number only.

Below: 2 compounds and their reported inhibition at 1 µM.
[
  {
    "COMPOUND": "O=C(O)CC1CCN(Cc2cc(Oc3cnc(N4CCNCC(O)C4)nc3)nc(-c3cc(Cl)cc(Cl)c3)c2)CC1 (stereo not drawn)",
    "inhibition at 1 µM (%)": 50.6
  },
  {
    "COMPOUND": "CNC(=O)NCC1CCN(Cc2cc(Oc3ccc(N4CCN(CCS(C)(=O)=O)CC4)nc3)nc(-c3cc(Cl)cc(Cl)c3)c2)CC1",
    "inhibition at 1 µM (%)": 50.6
  }
]

# input for lookup
stdin: # inhibition at 1 µM lookup, item `CC(=O)NCC1CCN(Cc2cc(Oc3cnc(N4CCN(CCC(=O)O)CC4)nc3)nc(-c3cc(Cl)cc(Cl)c3)c2)CC1`
stdout: 48.5

----------
system: Marburg virus (MARV); experiment: organism not typed; format: cell-based; details: Vero, 72 h, read-out: Percent viral inhibition MARV
MEASUREMENT_TYPE: inhibition at 1 µM (%)
# number only, unit % dropped from output

[
  {
    "COMPOUND": "CNC(=O)OCC1CCN(Cc2cc(Oc3cnc(N4CCN(CCC(=O)O)CC4)nc3)nc(-c3cc(Cl)cc(Cl)c3)c2)CC1 [Example 248]",
    "UNIT_SYMBOL": "%",
    "inhibition at 1 µM": 49.6
  },
  {
    "COMPOUND": "CN1CCN(c2ncc(Oc3cc(CN4CCC(OCC(=O)O)C4)cc(-c4cc(Cl)cc(Cl)c4)n3)cn2)CC1 (stereo not drawn) [Example 128]",
    "UNIT_SYMBOL": "%",
    "inhibition at 1 µM": 51.4
  },
  {
    "COMPOUND": "CN1CCCN(c2ccc(Oc3cc(CN4CC[C@@H]5[C@H](CC4)[C@H]5C(=O)O)cc(-c4cc(Cl)cc(Cl)c4)n3)nn2)CC1 [Example 362]",
    "UNIT_SYMBOL": "%",
    "inhibition at 1 µM": 50.9
  }
]

stdin: Item under review: CN1CCN(c2ncc(Oc3cc(CN4CCC(NC(=O)NS(C)(=O)=O)CC4)cc(-c4cc(Cl)cc(Cl)c4)n3)cn2)CC1 [Example 328] . Reported inhibition at 1 µM?
stdout: 49.5

stdin: # query: inhibition at 1 µM of entry CC(=O)NCC1CCN(Cc2cc(Oc3ccc(N4CCN(CCCC(=O)O)CC4)nc3)nc(-c3cc(Cl)cc(Cl)c3)c2)CC1 [Example 249]
stdout: 51.4

stdin: Fill in: inhibition at 1 µM of CN1CCCN(c2ncc(Oc3cc(CN4CCC(CC(=O)O)CC4)cc(-c4cc(F)cc(Cl)c4)n3)cn2)CC1 [Example 374] is ___
stdout: 48.6

----------
We begin with a simple list: items and their reported inhibition at 1 µM.
system: Chikungunya virus (CHIKV); assay: microbe, parasite or virus in culture; format: cell-based; settings: Chikungunya virus, Vero, 48 h, read-out: Percent viral inhibition CHKV
Respond with the bare value in %.

Some solved entries appear below for comparison.
[
  {
    "MOLECULE": "CC(=O)NCC1CCN(Cc2cc(Oc3cnc(N4CCCNCC4)nc3)nc(-c3cc(Cl)cc(Cl)c3)c2)CC1",
    "TARGET": "Chikungunya virus (CHIKV)",
    "UNIT_SYMBOL": "%",
    "inhibition at 1 µM": 0
  },
  {
    "MOLECULE": "COC(=O)CCN1CCN(c2ccc(Oc3cc(CN4CCC(CNC(C)=O)CC4)cc(-c4cc(Cl)cc(Cl)c4)n3)cn2)CC1",
    "TARGET": "Chikungunya virus (CHIKV)",
    "UNIT_SYMBOL": "%",
    "inhibition at 1 µM": 14.9
  },
  {
    "MOLECULE": "COCCN1CCN(c2ccc(Oc3cc(CN4CCC(CC(=O)O)CC4)cc(-c4cc(Cl)cc(Cl)c4)n3)cn2)CC1",
    "TARGET": "Chikungunya virus (CHIKV)",
    "UNIT_SYMBOL": "%",
    "inhibition at 1 µM": 6.34
  },
  {
    "MOLECULE": "CN1CCCN(c2ccc(Oc3cc(CN4CC[C@@H]5[C@H](CC4)[C@H]5C(=O)O)cc(-c4cc(Cl)cc(Cl)c4)n3)nn2)CC1",
    "TARGET": "Chikungunya virus (CHIKV)",
    "UNIT_SYMBOL": "%",
    "inhibition at 1 µM": 14.9
  },
  {
    "MOLECULE": "CNC(=O)NCC1CCN(Cc2cc(Oc3ccc(N4CCN(CCS(C)(=O)=O)CC4)nc3)nc(-c3cc(Cl)cc(Cl)c3)c2)CC1",
    "TARGET": "Chikungunya virus (CHIKV)",
    "UNIT_SYMBOL": "%",
    "inhibition at 1 µM": 0
  }
]

stdin: Any idea what inhibition at 1 µM was measured for `CC(=O)NCC1CCN(Cc2cc(Oc3cnc(N4CCN(CCC(N)=O)CC4)nc3)nc(-c3cc(Cl)cc(Cl)c3)c2)CC1` ?
stdout: 10.9

stdin: Query (molecule): `NS(=O)(=O)CCCN1CCN(c2ncc(Oc3cc(CN4CCC(CC(=O)O)CC4)cc(-c4cc(Cl)cc(Cl)c4)n3)cn2)CC1` ; field requested: inhibition at 1 µM
stdout: 24.6

stdin: Quick check: inhibition at 1 µM of `C[C@@H](CC1CCN(Cc2cc(Oc3ccc(N4CCN(C)CC4)nn3)nc(-c3cc(Cl)cc(Cl)c3)c2)CC1)C(=O)O` ?
stdout: 0

stdin: Would you kindly share the measured inhibition at 1 µM for `CN1CCN(c2ncc(Oc3cc(CN4CCC(CC(=O)O)CC4)cc(-c4cc(Cl)cc(Cl)c4)n3)cn2)CC1` ?
stdout: 26.3

stdin: Item `CC(=O)NCC1CCN(Cc2cc(Oc3cnc(N4CCN(CCS(C)(=O)=O)CC4)nc3)nc(-c3cc(Cl)cc(Cl)c3)c2)CC1` has what recorded inhibition at 1 µM?
stdout: 35.3

stdin: Entry under review: `CC(=O)NCC1CCN(Cc2cc(Oc3ccc(N4CCN(CCC(=O)O)CC4)nc3)nc(-c3cc(F)cc(Cl)c3)c2)CC1` . Reported inhibition at 1 µM?
stdout: 4.53

stdin: Any idea what its inhibition at 1 µM is? The molecule is `CN1C2CC1CN(c1ncc(Oc3cc(CN4CCC(CC(=O)O)CC4)cc(-c4cc(Cl)cc(Cl)c4)n3)cn1)C2`
stdout: 17.3

stdin: So what's the measured inhibition at 1 µM for this one? `CC(=O)NCC1CCN(Cc2cc(Oc3cnc(N4CCN(CCO)CC4)nc3)nc(-c3cc(Cl)cc(Cl)c3)c2)CC1`
stdout: 0

stdin: For `CC(=O)NCC1CCN(Cc2cc(Oc3cnc(N4CCN(C)CC4)nc3)nc(-c3cc(Cl)cc(Cl)c3)c2)CC1` , what is its reported inhibition at 1 µM?
stdout: 6.9

stdin: Reported inhibition at 1 µM, molecule `CNC(=O)OCCN1CCN(c2ncc(Oc3cc(CN4CCC(CC(=O)O)CC4)cc(-c4cc(Cl)cc(Cl)c4)n3)cn2)CC1` : ____
stdout: 32.4

stdin: For the molecule shown here, `CNC(=O)NCC1CCN(Cc2cc(Oc3cnc(N4CCN(CCOC)CC4)nc3)nc(-c3cc(Cl)cc(Cl)c3)c2)CC1` , give the reported inhibition at 1 µM.
stdout: 19

stdin: Data request, read-out inhibition at 1 µM, for `CC(=O)NCC1CCN(Cc2cc(Oc3ccc(N4CCN(CCOC(N)=O)CC4)nc3)nc(-c3cc(Cl)cc(Cl)c3)c2)CC1`
stdout: 18.7

stdin: Would you mind telling me what inhibition at 1 µM value was observed for CC(CC(=O)O)C1CN(Cc2cc(Oc3cnc(N4CCN(C)CC4)nc3)nc(-c3cc(Cl)cc(Cl)c3)c2)C1 (stereo not drawn) ?
stdout: 26
